Target: T1, human Klotho β (human, UniProt Q86Z14 1-1044)
T1 sequence (looked up): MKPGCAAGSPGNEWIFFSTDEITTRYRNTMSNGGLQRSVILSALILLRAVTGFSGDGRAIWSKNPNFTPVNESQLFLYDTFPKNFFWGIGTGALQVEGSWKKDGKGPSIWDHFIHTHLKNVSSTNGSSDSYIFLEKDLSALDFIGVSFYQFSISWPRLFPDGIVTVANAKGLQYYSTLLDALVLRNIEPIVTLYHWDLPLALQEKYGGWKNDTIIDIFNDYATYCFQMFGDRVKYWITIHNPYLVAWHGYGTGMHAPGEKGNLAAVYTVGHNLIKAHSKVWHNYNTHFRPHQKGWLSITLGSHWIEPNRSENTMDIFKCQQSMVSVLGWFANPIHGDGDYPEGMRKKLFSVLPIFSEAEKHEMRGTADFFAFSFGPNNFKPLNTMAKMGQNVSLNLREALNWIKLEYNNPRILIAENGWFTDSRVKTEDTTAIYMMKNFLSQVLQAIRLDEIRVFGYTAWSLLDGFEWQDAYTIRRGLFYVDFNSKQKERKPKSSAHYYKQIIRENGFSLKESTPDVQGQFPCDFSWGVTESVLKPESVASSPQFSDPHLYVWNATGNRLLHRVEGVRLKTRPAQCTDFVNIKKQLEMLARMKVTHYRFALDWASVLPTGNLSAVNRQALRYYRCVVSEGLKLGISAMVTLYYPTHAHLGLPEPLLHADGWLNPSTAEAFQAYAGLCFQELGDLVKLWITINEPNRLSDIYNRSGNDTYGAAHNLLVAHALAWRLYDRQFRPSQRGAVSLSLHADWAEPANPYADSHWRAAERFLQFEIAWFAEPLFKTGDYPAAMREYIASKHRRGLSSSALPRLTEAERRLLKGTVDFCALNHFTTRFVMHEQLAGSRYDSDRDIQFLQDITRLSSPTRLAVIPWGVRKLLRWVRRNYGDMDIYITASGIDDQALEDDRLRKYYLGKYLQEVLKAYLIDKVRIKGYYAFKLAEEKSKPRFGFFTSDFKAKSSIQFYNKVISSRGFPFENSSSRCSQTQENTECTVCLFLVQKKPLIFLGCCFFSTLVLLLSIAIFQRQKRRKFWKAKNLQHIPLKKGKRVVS
Test: cell-based or functional assay
Measurement Type: IC-50 of antagonism of FGF21 (pErk1/2, 293 HEK hKLB cells) (µM)

Check out these entries, answers already filled in.
Binder | Unit Of Measure | Assay Value
PPDVGSSDPASMVGPSQGRSPSYAS [FGF21 25mer A10] | µM | 3.32
PPAVGSSDPLSMVGPSQGRSPSYAS [FGF21 25mer A3] | µM | 2.28
PPDVGSSDPLSMAGPSQGRSPSYAS [FGF21 25mer A13] | µM | 2.11
PPDVGSSDPLSMVGPSQGRSPSAAS [FGF21 25mer A23] | µM | 3.98

[1] PPDVGSSDPLSMVGPSQGRSASYAS [FGF21 25mer A21]
[2] PPDVGSSDPLSMVGPSQGRAPSYAS [FGF21 25mer A20]
[3] PPDAGSSDPLSMVGPSQGRSPSYAS [FGF21 25mer A4]
Sequence the entries by IC-50 of antagonism of FGF21 (pErk1/2, 293 HEK hKLB cells), beginning with the highest number. Use the labels to give the ranking in the order requested.
3, 2, 1
(3: 5.93 µM, 2: 3.23 µM, 1: 2.24 µM)
